Origin of measurements: the OligoGym collection

- target-or-system: NMRAL1
- procedure-details: pooled miR-30 sensor sort-seq; sequence = guide strand; further: reference of the scale not given here
- condition-notes: shRNA
Below, each entry is listed alongside its reported sensor-assay potency score (higher = more potent).
Reply with the value as a number alone.

Measured sensor-assay potency score (higher = more potent), TCGGGTCACCACTCGAACCTTG : -0.891

So for TCCTTTGCTGCCTTCTTCCTAG , the logged sensor-assay potency score (higher = more potent) turned out to be -1.25

Briefly, sensor-assay potency score (higher = more potent) measured for TTGATGTTCTCCAGGCCGCTGT : -0.625

Please fill in: sensor-assay potency score (higher = more potent) reported for TAATTGGTCACGATGAAGGTGG = -0.074

The sequence listed as TACTTCTGCACCTTGCAGCCTC has a reported sensor-assay potency score (higher = more potent) of -0.418

For TTCTGCACCTTGCAGCCTCAGC the sequence record lists sensor-assay potency score (higher = more potent) as -0.852

get_value(item= TACTCCTCGGCCGTGTGCCTGC , readout=sensor-assay potency score (higher = more potent)) returns -0.836

* * *

- target-or-system: NEK7
- procedure-details: pooled miR-30 sensor sort-seq; sequence = guide strand
- condition-notes: shRNA
Measured sensor-assay potency score (higher = more potent) accompanies every entry in the list below.
Simply state the number, no unit and no words.

For orientation, consider the following solved cases.
{"query-sequence": "TTTTCATGTATTCTCTCTGGAG", "measured-number": -0.779}
{"query-sequence": "TTAGCTGGTTTTATATCTCTAT", "measured-number": -0.684}
{"query-sequence": "TAGTTCATTATCTTCAATGAAT", "measured-number": -1.2}

sensor-assay potency score (higher = more potent) reading for TAAACTTCACTAAATTGTCCGC : -0.329

The value of sensor-assay potency score (higher = more potent) measured for the sequence TAAACATAGGTGACGTCTGGTC turned out to be -1.09

* * *

- target-or-system: CHRNE
- procedure-details: pooled miR-30 sensor sort-seq; sequence = guide strand
- condition-notes: shRNA
observation-type: sensor-assay potency score (higher = more potent)
# print the numeric value only

// below: answered sequences
{"query-sequence": "TTGCCGTCGTTGTCTACGGCAA", "target-or-system": "CHRNE", "measured-number": -1.16}
{"query-sequence": "TAGGTGACCTCCACTGCGCAGA", "target-or-system": "CHRNE", "measured-number": -0.727}
{"query-sequence": "TCAAACACGAGCTCGCTCCGTG", "target-or-system": "CHRNE", "measured-number": -0.0514}
{"query-sequence": "TTGATGGTCTTGCCGTCGTTGT", "target-or-system": "CHRNE", "measured-number": -1.26}
{"query-sequence": "TAGTGGTGAGAGTCTCCTCTTT", "target-or-system": "CHRNE", "measured-number": -0.541}

Memo: TTTTTCAAAATCAATTTCCTAC , reported sensor-assay potency score (higher = more potent): -0.288

In plain terms, TCGATCTTGTTGATGGTCTTGC has a documented sensor-assay potency score (higher = more potent) of 0.161

Noted for TAGAAGAGCGGCTTCCGGCGGA : its sensor-assay potency score (higher = more potent) reads 0.192

So, TTAATGACGTAGAAGAGCGGCT ? Its sensor-assay potency score (higher = more potent) was -0.711

* * *

- target-or-system: PRSS27
- procedure-details: pooled miR-30 sensor sort-seq; sequence = guide strand
- condition-notes: shRNA
observation-type: sensor-assay potency score (higher = more potent)
Respond with the number and no other words.

// worked examples, sensor-assay potency score (higher = more potent) included
{"query-sequence": "TACAGGGACGTCTCAGAGGTGT", "target-or-system": "PRSS27", "measured-number": -0.7}
{"query-sequence": "AAACTCGGTGTCTTTGCTGTAG", "target-or-system": "PRSS27", "measured-number": -0.247}
{"query-sequence": "TAGAGCAGGTTGCACTTGGGTG", "target-or-system": "PRSS27", "measured-number": -0.65}
{"query-sequence": "TTGCTGTAGAGCAGGTTGCACT", "target-or-system": "PRSS27", "measured-number": -1.36}
{"query-sequence": "TTTGCTGTAGAGCAGGTTGCAC", "target-or-system": "PRSS27", "measured-number": -0.973}

The measured sensor-assay potency score (higher = more potent) associated with TGACACGGATGTAGACACCTGG reads -0.413

Input TTGGTAGCCAAACTCGGTGTCT . Output sensor-assay potency score (higher = more potent): -0.152

Reported sensor-assay potency score (higher = more potent) for TCATTCTTGATGGTTTTGGGTT was -0.872

Please fill in: sensor-assay potency score (higher = more potent) reported for TAATTGGTGAAGGGCACTGGTG = -1.57

* * *

- target-or-system: LIN54
- procedure-details: pooled miR-30 sensor sort-seq; sequence = guide strand
- condition-notes: shRNA
Values of sensor-assay potency score (higher = more potent) greater than or equal to -0.3 map to 1; values below map to -1.

Below are worked cases with known answers.
{"query-sequence": "TTTTAAGACATCCTGATCGTTT", "category-label": 1}
{"query-sequence": "TTATGTAACATTCTGTCTGCAG", "category-label": 1}
{"query-sequence": "TTGTCTGTCCTGTAACTGCTTT", "category-label": -1}
{"query-sequence": "TTTCTTTAAAAGATAGTCCTTT", "category-label": 1}
{"query-sequence": "TTTACAAGCAAAACATTCGTAA", "category-label": 1}

Shift focus to the following entry.
-- ask Has TTAGTAAGTACTACACAGGAAG a recorded sensor-assay potency score (higher = more potent) greater than or equal to -0.3?
-- reply -1

* * *

Entries and their sensor-assay potency score (higher = more potent) values follow.
- target-or-system: ERICH1
- procedure-details: pooled miR-30 sensor sort-seq; sequence = guide strand
- condition-notes: shRNA
Answer with a number only.

{"query-sequence": "TTTCATTGGTAATTGTATCATC", "target-or-system": "ERICH1", "measured-number": -0.447}
{"query-sequence": "TATTGTGGTGCCATCTGTGTGC", "target-or-system": "ERICH1", "measured-number": 0.019}

We next turn to a different sequence, shown below.
Query AATTGTATCATCTTCCTCGCTG yields sensor-assay potency score (higher = more potent) of 0.524

* * *

- target-or-system: MAST4
- procedure-details: pooled miR-30 sensor sort-seq; sequence = guide strand
- condition-notes: shRNA
Everything with sensor-assay potency score (higher = more potent) lower than -0.4 is Criterion not met; everything else, including exactly -0.4, is Criterion met.

{"query-sequence": "TAACTGATGCAACTTCTCCTGG", "target-or-system": "MAST4", "category-label": "Criterion met"}

-- ask Could you please find out whether TTGCTTTTCACCAACAGCGGAC has sensor-assay potency score (higher = more potent) that meets -0.4 or exceeds it?
-- reply Criterion not met

-- ask Given the entry TTGGCCTTCAGCTTGTCGCGGT , answer whether its sensor-assay potency score (higher = more potent) meets or surpasses -0.4.
-- reply Criterion met

-- ask Exam item: decide whether the reported sensor-assay potency score (higher = more potent) for TAGGTAGTAAAATTCTTCCGGA is at least -0.4.
-- reply Criterion met

-- ask Given the entry TTGCCTATTAAGCTTTTCCGGT , answer whether its sensor-assay potency score (higher = more potent) meets or surpasses -0.4.
-- reply Criterion not met

-- ask Could you tell me if the measured sensor-assay potency score (higher = more potent) of TTTGCTTTTCACCAACAGCGGA reaches -0.4 or more?
-- reply Criterion not met

* * *

- target-or-system: ZNF583
- procedure-details: pooled miR-30 sensor sort-seq; sequence = guide strand
- condition-notes: shRNA
Reported sensor-assay potency score (higher = more potent) values are given for each entry in this list.
Answer as a number with no unit attached.

{"query-sequence": "TTTCTTTTCTACATAGACTTTC", "target-or-system": "ZNF583", "measured-number": -0.596}

ZNF583 data for TTCTCCAACATCACTTTCCTGT ; its sensor-assay potency score (higher = more potent): 0.0692

Form: item TTTCTTTTGTGGTTCATGCTTA ; test system ZNF583; sensor-assay potency score (higher = more potent): 0.129

sensor-assay potency score (higher = more potent) value, target or system ZNF583, for TATAACTAAGATGTCTTGCTCC : 0.322

// sensor-assay potency score (higher = more potent) (ZNF583) for TTTTTTACATTCTTTACACTGA = 0.132

The sequence TTCGGTAACTTTTCTTTTGTGG , when measured on ZNF583, yielded sensor-assay potency score (higher = more potent) of 0.115

// sensor-assay potency score (higher = more potent) (ZNF583) for TTTTCTACATAGACTTTCCTAT = -0.369

Result for TATATCAAAGATTGTATCCTGG , tested on ZNF583, sensor-assay potency score (higher = more potent): 0.513

Let me check: TTTTACATTCTTTACACTGATA , system ZNF583, measured sensor-assay potency score (higher = more potent) is -0.826
